Molecular target: T1, 4H3189-bN
T1 chain: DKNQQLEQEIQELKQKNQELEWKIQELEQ
Test: two-hybrid library CCNG1;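 further: natural log of median RNA to DNA barcode read ratio; higher means stronger binding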
Kindly supply the reported interaction score values for the records listed here.
Give bare numbers.

Consider the worked cases shown below.
[[record]]
binder = "DENQQLEQKNQELEQKIQELEWKIQELKQ [4H1446-bN]"
numeric_value = 0.67

[[record]]
binder = "DENQQLEQKIQELKQENQELKWEIQELEQ [4H1369-bN]"
numeric_value = -0.697

[[record]]
binder = "DENQQLEQKIQELEQKIQELKWKNQELKQ [4H1328-bN]"
numeric_value = -0.232


For every item below, please supply its interaction score.
1. DKIQQLKQEIQELEQEIQELKWKNQELKQ [4H2576-bN]
2. DKIQQLKQEIQELEQKNQELEWEIQELKQ [4H2610-bN]
3. DKIQQLKQENQELEQEIQELKWEIQELEQ [4H2697-bN]
4. DKIQQLKQEIQELKQKIQELKWENQELEQ [4H2667-bN]

1. 0.118
2. -0.821
3. -1.43
4. -0.514
